Recorded TGI values for a group of molecules are listed next.
system: MALME-3M melanoma; assay: NCI tumour cell line growth inhibition, 48 h
Give your result in µM as a bare value.

| MOLECULE | UOM | TGI |
| --- | --- | --- |
| O=C1C=CC2(NN=C(c3ccccc3)N2c2ccccc2)c2cccc(O)c21 (centres undefined) | µM | 2.58 |

Please examine the following record next.
Give the reported value of TGI for this record: "Cc1ccc(I)cc1N=C=S"
61.5

----------
system: MDA-MB-231 breast; test: NCI tumour cell line growth inhibition, 48 h
Mark Condition not met for TGI values under 20 µM, and Condition met for everything at or above.

Worked cases, answers included:
| COMPOUND | SYSTEM | GROUP |
| --- | --- | --- |
| CCN(CC)c1ccc2cc(-c3nc4ccccc4n3C)c(=O)oc2c1 | MDA-MB-231 breast | Condition met |
| CCCCCN1C(=O)/C(=c2\sc3n(c2=O)C2C(NN=3)N(CC)C(=O)N2CC)c2ccccc21 (centres undefined) | MDA-MB-231 breast | Condition not met |
| CN1CCC(CN2c3ccccc3Sc3ccccc32)C1 (centres undefined) | MDA-MB-231 breast | Condition met |
| Nc1c(C(=O)N/N=C/c2ccco2)cnn1-c1ccnc2c(C(F)(F)F)cccc12 | MDA-MB-231 breast | Condition met |
| Cc1ccc(I)cc1N=C=S | MDA-MB-231 breast | Condition met |
| c1ccc(N=C(N2CCCCC2)N(CCN2CCCCC2)c2ccccc2)cc1 | MDA-MB-231 breast | Condition not met |
| CNC(=O)c1ccc(C(=O)NCCCCCN(O)C(=O)CCC(=O)NCCCCCN(O)C(=O)CCC(=O)NCCCCCN(O)C(C)=O)c(O)c1O | MDA-MB-231 breast | Condition met |
| Fc1ccc(-c2ncn(C3CCNCC3)c2-c2ccnc(Oc3cccc(C(F)(F)F)c3)n2)cc1 | MDA-MB-231 breast | Condition not met |
| COc1ccc2c(c1OC)OC[C@@H](C1=CC(=O)C=C(O)C1=O)C2 | MDA-MB-231 breast | Condition not met |
| CCCCCCCCCCCCCCCC(=O)Nc1ccn([C@@H]2O[C@H](CO)[C@@H](O)[C@@H]2C#N)c(=O)n1 | MDA-MB-231 breast | Condition met |

Given "COc1ccc(/C=C/C(=O)Nc2cc(/C=C\c3cc(OC)c(OC)c(OC)c3)cc(OC)c2OC)cc1OC" , state whether its TGI is at least 20 µM.
Condition met

Given "Cc1oc2c(cc(O)c3ccccc32)c2cccc1-2" , state whether its TGI is at least 20 µM.
Condition met
